Collected normalized growth values appear next to each entry.
test: chemical genetic growth profiling, strain panel (AID 1159580);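 also: tested at 20 µM; growth read once vehicle control cultures reached saturation at 30 °C; 1 = growth at the plate median or of vehicle wells; lower values mean less growth of the strain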; details: S. cerevisiae deletion strains, growth OD, locus YML032C, strain rad52, active compounds read low
The campaign covered roughly 5,500 compounds. About 2,000 (36%) were called active. Not shown: some 18% with an inconclusive outcome. Some of the results follow.
Would you mind answering with just the numeric figure?

# molecule, measurement type, meas value
data = [
    ("CCCCC(=O)O[C@]1(C(=O)CO)[C@@H](C)CC2C3CCC4=CC(=O)C=C[C@]4(C)[C@@]3(F)C(O)C[C@@]21C (some centres undefined)", "normalized growth", 1),
    ("CCC(=O)O[C@]1(C(=O)CCl)[C@@H](C)CC2C3CCC4=CC(=O)C=C[C@]4(C)[C@@]3(F)[C@@H](O)C[C@@]21C (some centres undefined)", "normalized growth", 0.985),
    ("NC[C@H]1O[C@H](OC2[C@@H](N)C[C@@H](N)[C@H](O[C@H]3O[C@H](CO)[C@@H](O)[C@H](N)[C@H]3O)[C@H]2O)[C@H](O)[C@@H](O)[C@@H]1O (some centres undefined)", "normalized growth", 0.984),
]

What does the record list as normalized growth for CCn1nc(C(=O)O)c(=O)c2cc3c(cc21)OCO3 ?
1.03

The values you see were collected from PubChem BioAssay AID1159580.
